Entries and their TGI
System: UACC-62 melanoma
Experiment: NCI tumour cell line growth inhibition, 48 h
Express the result in µM but write the number alone.

Smiles str | Target or test system | TGI / µM
Cn1c(=O)c(-c2c(Cl)cccc2Cl)cc2cnc(Nc3ccc(I)cc3)nc21 | UACC-62 melanoma | 1.28
Brc1ccc(C[N+]23CN4CN(CN(C4)C2)C3)cc1 | UACC-62 melanoma | 30.5

Now for another entry.
# input Fill in: TGI of `CCOC(=O)c1cc([N+](=O)[O-])cc([N+](=O)[O-])c1Sc1ncnc2nc[nH]c12` is ___
# output 21.3

---

As shown below, each of these compounds has a reported TGI value.
System: OVCAR-8 ovarian
Assay: NCI tumour cell line growth inhibition, 48 h

Worked examples, 5 compounds total:
Smiles str | TGI
Cc1cc2c(cc1-c1cc3c(cc1C)C(C(C)C)=C(O)C(=O)/C3=C\Nc1ccccn1)/C(=C/Nc1ccccn1)C(=O)C(O)=C2C(C)C | > 100 µM
CC/C(=C(/CC)c1ccc(O)cc1)c1ccc(O)cc1 | 37.1 µM
CC(=O)N1CCN(CCCCN2c3ccccc3Sc3cc(N=[N+]=[N-])ccc32)CC1 | 32 µM
O=c1[nH]c(-c2ccc([N+](=O)[O-])cc2)nc2ccc(Cl)cc12 | > 100 µM
CC(=O)Nc1ccc(Cc2ccc3[nH]c(=O)cc(C)c3c2)cc1 | > 100 µM

# input Look up TGI with OVCAR-8 ovarian for this compound: `O=c1[nH]c(-c2ccc(Cl)cc2)cc2ccsc12`
# output > 100 µM

# input Here is the next compound: `C/C(CC(=O)Nc1ccc([N+](=O)[O-])cc1)=N\Nc1ccc([N+](=O)[O-])cc1[N+](=O)[O-]`
# output > 100 µM

# input Could you do the same for `N/C(=N/N=C/c1cccc(F)c1)NO` , please?
# output > 100 µM

# input Then what about the compound `Nc1nc(-c2ccc3ccccc3c2)cc(-c2cc(-c3ccc4ccccc4c3)nc(N)n2)n1` ?
# output > 100 µM

# input Next: `Oc1[nH]c2ccccc2c1/C=c1/ccc2c(c1)N=C(c1cc(F)cc(F)c1)N=2`
# output 33.3 µM

---

System: SK-MEL-5 melanoma
Assay: NCI tumour cell line growth inhibition, 48 h; in the data active = GI50 below about 0.43 µM; inactive = the rest
Log the outcome using a class from active, inactive

Past entries and their recorded results:
Molecule | Assigned label
C=CCCCC(O)c1ccc(C(O)c2cnc3ccccc3c2)o1 (stereo not given) | inactive
Cc1ccnc(NC(c2ccccc2)c2ccc3cccnc3c2O)c1 (stereo not given) | inactive
CC/C(=C(/CC)c1ccc(O)cc1)c1ccc(O)cc1 | inactive
COc1cc(O)c2c(=O)c(OC)c(-c3ccc(OC)c(OC)c3)oc2c1.[Sn] | inactive
CCCCCCn1c2c(c3c(O)cccc31)C(=O)c1ccccc1-2 | inactive
NCCCCCCCCCn1c2c(c3ccccc3c1=O)C(=O)c1ccccc1-2 | inactive

# input Per the assay record, what outcome was assigned to `Clc1ccc(Nc2ncnc3c2sc2ncccc23)c(Cl)c1` ?
# output active

# input Proceed to `C=C(C)[C@@H]1CC[C@]2(C(=O)N3CCN(C)CC3)CC[C@]3(C)[C@H](CC[C@@H]4[C@@]5(C)CC[C@H](O)C(C)(C)[C@@H]5CC[C@]43C)[C@@H]12`
# output inactive

# input Cool, now `COc1ccc2c(c1)C(=O)c1c-2c(OCCN2CCCCC2)nc2ccc(OC)cc12`
# output inactive

# input Would you mind doing `CNC(=O)c1cc(Oc2cccc3nc(NC(=O)Nc4ccc(F)cc4F)ccc23)ccn1` as well?
# output inactive

---

Tested on: OVCAR-3 ovarian
Assay: NCI tumour cell line growth inhibition, 48 h; in the data active means GI50 below about 0.43 µM; inactive means the rest
Write down the outcome that applies. Available outcomes: 1.0 (active), 0.0 (inactive)

Molecule | Target or test system | Assigned label
COC1=CC(c2ccc[nH]2)=N/C1=C\c1[nH]c(C)c(C)c1CCC(=O)OCc1ccccc1 | OVCAR-3 ovarian | 1.0

# input Any idea what this test logged for `O=C(Nc1ccc(Cl)cc1)c1cc2ccccc2cc1OP(=O)(O)O` ?
# output 0.0

# input Repeat for the following molecule: `C=C(C)[C@@H]1CC[C@]2(C(=O)N3CCN(C)CC3)CC[C@]3(C)[C@H](CC[C@@H]4[C@@]5(C)CC[C@H](O)C(C)(C)[C@@H]5CC[C@]43C)[C@@H]12`
# output 0.0

---

Test system: TK-10 renal
Assay: NCI tumour cell line growth inhibition, 48 h
Measured attribute: TGI

Compound | TGI
O=C(O)CCCc1cc2c(s1)-c1cccc3cccc-2c13 | > 100 µM
COC1/C=C/OC2(C)Oc3c(C)c(O)c4c(O)c(c(C=NOC(c5ccccc5)c5ccccc5)c(O)c4c3C2=O)NC(=O)/C(C)=C/C=C/C(C)C(O)C(C)C(O)C(C)C(OC(C)=O)C1C (stereo not given) | 3.59 µM
O=c1[nH]c(-c2ccc(Cl)cc2)cc2ccsc12 | 8.22 µM
c1ccc(N2N=NC3C4CC(C5c6ccccc6C45)C32)cc1 (stereo not given) | > 100 µM

# input Request the reported TGI associated with `NNC(=S)NN/C=C(\C=Nc1ccccc1)[N+](=O)[O-]`
# output > 100 µM

---

System: SK-MEL-2 melanoma
Assay: NCI tumour cell line growth inhibition, 48 h; in the data active = GI50 below about 0.43 µM; inactive = the rest
Use one of these outcomes when replying: t = active, f = inactive

Check out these entries, answers already filled in.
Molecule | Assigned label
CS(=O)(=O)c1ccc(-c2cnc(NCc3ccco3)n3cnnc23)cc1 | f
Cc1nc2cc(Nc3nc(Nc4ccc(F)cc4)nc(N4CCCC4)n3)ccc2n1Cc1ccccc1 | f
CCN(CC)CC(O)c1cc(-c2ccc(Cl)cc2)nc2cc(Cl)ccc12 (stereo not given) | f
NC(CS)C(=O)NCCNc1ccc(NCCNC(=O)C(N)CS)c2c1C(=O)c1c(O)ccc(O)c1C2=O (stereo not given) | t

Would you kindly look at the next entry?
# input What call does the record list for `COc1cc(OC)c(/C=C/C(=O)c2c(O)cc(OC)c(C3CCN(C)CC3)c2OC)c(OC)c1` ?
# output f

---

System: A549 NSCLC
Assay: NCI tumour cell line growth inhibition, 48 h; in the data active = GI50 below about 0.43 µM; inactive = the rest
Please answer using one outcome listed in active, inactive

Here are 8 compounds together with their reported answers.
Compound | Target or test system | Assigned label
COc1cc(/C=C/c2ccc(S(N)(=O)=O)cc2)cc(OC)c1 | A549 NSCLC | inactive
CC/C(=C(/CC)c1ccc(O)cc1)c1ccc(O)cc1 | A549 NSCLC | inactive
O=C1c2ccccc2-c2ccccc2C1(Cl)Cl | A549 NSCLC | inactive
C=CCCCC(O)c1ccc(C(O)c2cnc3ccccc3c2)o1 (stereo not given) | A549 NSCLC | inactive
O=[N+]([O-])c1cccc([I+]c2ccccc2)c1 | A549 NSCLC | inactive
O=C(Nc1ccc(Cl)cc1)c1cc2ccccc2cc1OP(=O)(O)O | A549 NSCLC | inactive
Cc1nc2cc(Nc3nc(Nc4ccc(F)cc4)nc(N4CCCC4)n3)ccc2n1Cc1ccccc1 | A549 NSCLC | inactive
Cc1cc2nc3c4cc([N+](=O)[O-])ccc4n(CCN(C)C)c3nc2cc1C | A549 NSCLC | active

# input Test call for this compound, please: `COc1ccc(/C=C/C(=O)c2ccccc2)cc1OC`
# output inactive

# input Now the same for `Oc1[nH]c2ccccc2c1/C=c1/ccc2c(c1)N=C(c1cc(F)cc(F)c1)N=2`
# output inactive

---

Test system: A498 renal
Assay: NCI tumour cell line growth inhibition, 48 h
The entries below are paired with their reported TGI.

# input GET /values?readout=TGI&item= `CNC(=O)c1cc(Oc2cccc3nc(NC(=O)Nc4ccc(F)cc4F)ccc23)ccn1`
# output 23.3 µM

# input // next record `CN1C(=O)[C@@H]2[C@@H]3c4ccccc4N[C@@H]3c3[nH]c4ccccc4c3[C@@H]2C1=O`
# output 65.3 µM

# input Now this one: `Cc1cc(C)c(C2=NO[C@@H]3C(=O)N(c4ccc(Cc5ccc(N6C(=O)[C@H]7C(c8c(C)cc(C)cc8C)=NO[C@H]7C6=O)cc5)cc4)C(=O)[C@H]23)c(C)c1`
# output > 100 µM

---

System: OVCAR-5 ovarian
Assay: NCI tumour cell line growth inhibition, 48 h
TGI reference

Molecule | Measured attribute | Obs value
COC1/C=C/OC2(C)Oc3c(C)c(O)c4c(O)c(c(C=NOC(c5ccccc5)c5ccccc5)c(O)c4c3C2=O)NC(=O)/C(C)=C/C=C/C(C)C(O)C(C)C(O)C(C)C(OC(C)=O)C1C (stereo not given) | TGI | 2.49 µM
COc1cc2c(cc1OC)-c1[nH]c3ccc([N+](=O)[O-])cc3c1CC(=O)N2 | TGI | > 83.2 µM
O=C(O)c1c[nH]c2c(ccc3[nH]cc(C(=O)O)c(=O)c32)c1=O | TGI | > 100 µM
NNc1ncnc2cccc(Cl)c12 | TGI | > 100 µM
O=C(CC1(O)C(=O)Nc2ccc([N+](=O)[O-])cc21)c1ccc(Br)cc1 (stereo not given) | TGI | > 100 µM

# input Reported TGI for OVCAR-5 ovarian, given `CN(CCCCN)c1ccc2c(=O)[nH][nH]c(=O)c2c1` ?
# output > 100 µM

# input Also, `Clc1ccc(Nc2ncnc3c2sc2ncccc23)c(Cl)c1` please.
# output > 100 µM

# input # repeat for `COc1ccc(C2NC3=C(CCCC3)N2)cc1`
# output > 100 µM
